Value source: patent US5159077A

I'd be grateful if you could share measured MIC for these entries.
Test system: Proteus mirabilis 2
Method: In vitro MIC, Broth Dilution Method
Format: cell-based
Cond: Proteus mirabilis, 2, read-out: In Vitro MIC
Counter-ions that a name gives are not always drawn.
State the answer as a number, implicitly in µg/mL.

Request: Would you kindly share the measured MIC for CCn1cc(C(=O)[O-])c(=O)c2cc(F)c(N3CCN(C=N[C@H]4CN(S(=O)(=O)[O-])C4=O)CC3)cc21.[Na+].[Na+] ?
Result: 0.063

Request: Would you kindly share the measured MIC for CCn1cc(C(=O)O)c(=O)c2cc(F)c(N3CCCN(C=N[C@@H]4C(=O)N5[C@@H]4SC(C)(C)[C@@H]5C(=O)O)CC3)nc21 [Compound K, disodium salt] ?
Result: 4

Request: Would you kindly share the measured MIC for CC1(C)S[C@@H]2[C@H](N=CN3CCN(c4c(F)cc5c(=O)c(C(=O)O)cn(CCF)c5c4F)CC3)C(=O)N2[C@H]1C(=O)O [Compound D, monosodium salt] ?
Result: 0.125

Request: Would you kindly share the measured MIC for CCn1cc(C(=O)O)c(=O)c2cc(F)c(N3CCN(C=N[C@@H]4C(=O)N5C(C(=O)O)=C(COC(C)=O)CS[C@H]45)CC3)cc21 [Compound I, monosodium salt] ?
Result: 0.063

Request: Would you kindly share the measured MIC for CCn1cc(C(=O)O)c(=O)c2cc(F)c(N3CCN(C=N[C@@H]4C(=O)N5C(C(=O)O)=C(C)CS[C@H]45)CC3)cc21 [Compound C, disodium salt] ?
Result: 0.063

Request: Would you kindly share the measured MIC for CCn1cc(C(=O)O)c(=O)c2cc(F)c(N3CCCN(C=N[C@@H]4C(=O)N5[C@@H]4SC(C)(C)[C@@H]5C(=O)O)CC3)cc21 [Compound G, disodium salt] ?
Result: 4

Request: Would you kindly share the measured MIC for CCn1cc(C(=O)[O-])c(=O)c2cc(F)c(N3CCN(C=N[C@@H]4C(=O)N(S(=O)(=O)[O-])[C@@H]4COC(N)=O)CC3)cc21.[Na+].[Na+] ?
Result: 0.063
